Measured values drawn from a collection of fitness landscapes (doi:10.1016/j.celrep.2020.107928) for this set.

B1: Caulobacter ParB omega fusion; a variant is named by its letters at X, in order, B8GW30 (parent)
chain: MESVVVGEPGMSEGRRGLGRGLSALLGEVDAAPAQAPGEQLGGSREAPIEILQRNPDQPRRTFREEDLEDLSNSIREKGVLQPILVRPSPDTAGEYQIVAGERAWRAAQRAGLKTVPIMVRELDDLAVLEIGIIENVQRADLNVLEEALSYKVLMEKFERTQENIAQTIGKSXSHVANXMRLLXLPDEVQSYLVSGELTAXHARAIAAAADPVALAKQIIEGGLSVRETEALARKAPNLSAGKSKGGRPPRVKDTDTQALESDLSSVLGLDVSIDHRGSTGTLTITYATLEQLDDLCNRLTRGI

variants of: B1; assay: one-hybrid fitness for binding parS DNA (scaled: cognate 1, non-cognate 0); higher = stronger binding; details: with parS DNA site
The full ranking holds about 81,000 sequences; the median of “one-hybrid fitness for binding parS DNA” is about -0.17, and the highest 2% start at about 0.51. The entries come from a sample that favours the highest values as a whole.
Here, each record is paired with measured one-hybrid fitness for binding parS DNA data.

Below: 3 variants and their reported one-hybrid fitness for binding parS DNA.
RRSF    ≤ 0.2
RRRF    ≤ 0.2
SQAR    ≤ 0.2

Value of one-hybrid fitness for binding parS DNA reported for the variant RRLC is 0.669

Value of one-hybrid fitness for binding parS DNA reported for the variant RRSC is 0.596

Value of one-hybrid fitness for binding parS DNA reported for the variant RRRQ is ≤ 0.2
